system: Plasmodium falciparum NF54 asexual blood stage; experiment: % inhibition of asexual blood stage proliferation (pLDH); higher = more inhibition; details: 20 µM; 72 h
metricName: % inhibition of asexual blood stage proliferation

Cc1ccc(N2CCC(CCOc3ccc(S(C)(=O)=O)cc3)CC2)nn1 : 64.6%
N=C(N)NCCCCC(=O)Nc1cc(C(F)(F)F)cc(NC(=O)c2cc(C(=O)Nc3cc(C(F)(F)F)cc(NC(=O)CCCCNC(=N)N)c3O[C@@H]3CCNC3)ncn2)c1O[C@@H]1CCNC1 : 114%
C[C@H]1[C@@H](c2cccc(C(F)(F)F)c2)OC(=O)N1C(=O)NCc1cncc2ccccc12 : 30.8%
CCc1nc2ccc(Cl)cn2c1C(=O)NCc1ccc(N2CCC(c3ccc(OC(F)(F)F)cc3)CC2)cc1 : 102%

###

Entries and their % viability of CHO cells values follow.
tested on: CHO; assay: % viability of CHO cells (MTT); higher = less toxic; settings: 20 µM; 48 h
metricName: % viability of CHO cells (%)

Cn1cncc1[C@@](N)(c1ccc(Cl)cc1)c1ccc2c(c1)c(-c1cccc(Cl)c1)cc(=O)n2C : 47.9
CC(C)(C)c1ccc(OCCn2nc(C(=O)O)c3ccccc3c2=O)cc1 : 104
Clc1cc(Cl)c2c(c1)CCc1ccccc1C2n1ccnc1 (centres undefined) : 76.3
O=C(Nc1nnc(-c2ccc(Cl)cc2)o1)c1ccc(F)cc1 : 106
CC(C)Oc1ccc(-c2nc(-c3cccc4c3CC[C@@H]4NCCO)no2)cc1C#N : 117
COc1ccc(NS(=O)(=O)c2ccc(Cl)s2)cn1 : 100
CCCCCCC1c2ccc(O)cc2Oc2cc(O)ccc21 : 49.3
Oc1cccc(C(Nc2nccs2)c2ccc3cccnc3c2O)c1 (centres undefined) : 42.1
N#C/C(=C1/SC[C@H](c2ccc(Cl)cc2Cl)S1)n1ccnc1 : 118
Cc1nc(Nc2ccc(F)cc2)nc(N2CCc3ccccc3C2C)c1C (centres undefined) : 69.7
CC(=O)O[C@H]1C[C@@]2(C)[C@@H](C[C@@H](O)[C@H]3[C@@]4(C)CC[C@@H](O)[C@@H](C)[C@@H]4CC[C@@]32C)/C1=C(\CCC=C(C)C)C(=O)O : 97.1
CNCC(=O)OCc1cccnc1N(C)C(=O)OC(C)[n+]1cnn(C[C@](O)(c2cc(F)ccc2F)[C@@H](C)c2nc(-c3ccc(C#N)cc3)cs2)c1 (some centres undefined) : 98.8
COc1cc(NCc2ccc3nc(N)nc(N)c3c2C)cc(OC)c1OC : 47.7
Cc1c(F)cccc1NC(=O)Nc1ccc(Cl)c(S(=O)(=O)[C@H]2CCCNC2)c1O : 118
CC(=O)NC[C@H]1CN(c2ccc(N3CCSCC3)c(F)c2)C(=O)O1 : 91.5
Oc1ccc(NCc2ccccc2OCc2ccccc2)cc1 : 103
Cc1ccn2c(C(=O)NCc3ccccc3)c(C)nc2c1 : 53.7
C[C@@H]1O[C@@H]1P(=O)(O)O : 72.6
CC1CCc2c(N3CCC(O)CC3)c(F)cc3c(=O)c(C(=O)O)cn1c23 (centres undefined) : 87.6

###

system: Plasmodium falciparum NF54 asexual blood stage; assay: % inhibition of asexual blood stage proliferation (pLDH); higher = more inhibition; conditions: 2 µM; 72 h
Entries and their % inhibition of asexual blood stage proliferation values follow.
metricName: % inhibition of asexual blood stage proliferation

Nc1nc(F)nc2c1ncn2[C@H]1O[C@@H](CO)[C@H](O)[C@@H]1O : 67.3%
CC(C)CCN1C(=O)C(C2=NS(=O)(=O)c3cc(NS(C)(=O)=O)ccc3N2)=C(O)[C@@H]2[C@H]3CC[C@H](C3)[C@@H]21 : 37.2%
O=c1cc(OCc2ccccc2)ccn1Cc1ccccc1 : 6.62%
O=C(Nc1ccc(-c2ccccc2)cc1)C1=C(O)C(Cc2ccccc2)OC1=O (stereo not given) : 39.5%
COc1ccc(SC(=O)N[C@H](CCC(=O)O)C(=O)O)cc1 : 58.1%
O=[N+]([O-])c1cn(Cc2nc(O)nc(O)c2Br)cn1 : 38.7%
CO/N=C(\C(=O)N[C@@H]1C(=O)N2C(C(=O)OCOC(=O)C(C)(C)C)=C(/C=C\c3scnc3C)CS[C@H]12)c1csc(N)n1 : 7.74%
COc1ccc(C(C)(C)C)cc1NC(=O)C(=O)c1ccc(OCCN2CCOCC2)c2ccccc12 : 29.2%
Cc1cccc(C)c1C(=O)Nc1nc(-c2ccccn2)cc2ccccc12 : 79.3%
CC(C)Nc1ncnc2c1cnn2-c1ccc(Cl)cc1 : 18.3%

Numbers sourced from the supplement of paper PMC7801607.
